Would you kindly list solubility for each of these compounds?
Test: Compound solubility in water
Type: physicochemical
I'd appreciate it if you wrote the number followed by its unit.

# annotated cases, reported solubility shown
Cc1cc(C)n2ccc(C(=O)NC(C)(C)c3cccc(Cl)c3)c2n1; 1.5 µg/mL
CCC(NC(=O)c1ccn2c(C)cc(C)nc12)c1ccc(Cl)cc1 (stereo not drawn); 0.8 µg/mL
Cc1cc(Br)nc2c(C(=O)NC(C)(C)C3CC3)ccn12; 2.9 µg/mL
Cc1cc(C)n2ccc(C(=O)NC3(c4ccccc4)CC3)c2n1; 7.7 µg/mL
Cc1cc(C)n2ccc(C(=O)NC(C)c3nc4c(s3)CCCC4)c2n1 (stereo not drawn); 4.9 µg/mL

Provide reported solubility for each item, in the same order as listed.
1. CCC(NC(=O)c1ccn2c(C)cc(C)nc12)c1ccc2c(c1)OCCO2 (stereo not drawn)
2. Cc1cc(C)n2ccc(C(=O)NC(Cc3ccccc3)c3ccccc3)c2n1 (stereo not drawn)
3. Cc1cc(-c2cccnc2)nc2c(C(=O)N[C@H]3CC[C@H](OCC(C)C)CC3)ccn12
4. Cc1ccc([C@H](C)NC(=O)c2ccn3c(C)cc(C)nc23)cc1

Result string:
1. 1.1 µg/mL
2. 0.2 µg/mL
3. 1.9 µg/mL
4. 2.6 µg/mL
